# assay_text: Ex vivo biodistribution in H69-tumor bearing mice
# run_conditions: mouse, in vivo, iv, Uptake in Skin, 24 h p.i., n = 4
value_kind: tissue uptake at 24 h (%ID/g)
Number only, in %ID/g; omit the unit.

Field request: tissue uptake at 24 h | item: C[C@@H](O)[C@H](NC(=O)[C@@H]1CSSC[C@H](NC(=O)[C@@H](Cc2ccccc2)NC(=O)CN2CCN(CC(=O)O)CCN(CC(=O)O)CCN(CC(=O)O)CC2)C(=O)N[C@@H](Cc2ccc(O)cc2)C(=O)N[C@H](Cc2c[nH]c3ccccc23)C(=O)N[C@@H](CCCCN)C(=O)N[C@@H]([C@@H](C)O)C(=O)N1)C(=O)O [[^111In]In-DOTA-TATE, metal not drawn, reference compound]
0.13

---

# assay_text: Ex vivo biodistribution in H69-tumor bearing mice
# run_conditions: mouse, in vivo, iv, Uptake in Muscle, 4 h p.i., n = 4
value_kind: tissue uptake at 4 h (%ID/g)
The reply should contain only the number, in %ID/g.

Item under review: C[C@@H](O)[C@H](NC(=O)[C@@H]1CSSC[C@H](NC(=O)[C@@H](Cc2ccccc2)NC(=O)CN2CCN(CC(=O)O)CCN(CC(=O)O)CCN(CC(=O)O)CC2)C(=O)N[C@@H](Cc2ccc(O)cc2)C(=O)N[C@H](Cc2c[nH]c3ccccc23)C(=O)N[C@@H](CCCCN)C(=O)N[C@@H]([C@@H](C)O)C(=O)N1)C(=O)O [[^111In]In-DOTA-TATE, metal not drawn, reference compound] . Reported tissue uptake at 4 h?
0.02

---

# assay_text: Ex vivo biodistribution in H69-tumor bearing mice
# run_conditions: mouse, in vivo, iv, Uptake in Kidneys, 1 h p.i., n = 4
value_kind: tissue uptake at 1 h (%ID/g)
Use %ID/g as the unit, but write only the number.

Bench note: what tissue uptake at 1 h did C[C@@H](O)[C@H](NC(=O)[C@@H]1CSSC[C@H](NC(=O)[C@@H](Cc2ccccc2)NC(=O)CN2CCN(CC(=O)O)CCN(CC(=O)O)CCN(CC(=O)O)CC2)C(=O)N[C@@H](Cc2ccc(O)cc2)C(=O)N[C@H](Cc2c[nH]c3ccccc23)C(=O)N[C@@H](CCCCN)C(=O)N[C@@H]([C@@H](C)O)C(=O)N1)C(=O)O [[^111In]In-DOTA-TATE, metal not drawn, reference compound] show?
12.2
